# assayed target: Ikaros (Homo sapiens, UniProt Q13422+Q96SW2)
# Sequence (Q13422 whole entry, one chain of several): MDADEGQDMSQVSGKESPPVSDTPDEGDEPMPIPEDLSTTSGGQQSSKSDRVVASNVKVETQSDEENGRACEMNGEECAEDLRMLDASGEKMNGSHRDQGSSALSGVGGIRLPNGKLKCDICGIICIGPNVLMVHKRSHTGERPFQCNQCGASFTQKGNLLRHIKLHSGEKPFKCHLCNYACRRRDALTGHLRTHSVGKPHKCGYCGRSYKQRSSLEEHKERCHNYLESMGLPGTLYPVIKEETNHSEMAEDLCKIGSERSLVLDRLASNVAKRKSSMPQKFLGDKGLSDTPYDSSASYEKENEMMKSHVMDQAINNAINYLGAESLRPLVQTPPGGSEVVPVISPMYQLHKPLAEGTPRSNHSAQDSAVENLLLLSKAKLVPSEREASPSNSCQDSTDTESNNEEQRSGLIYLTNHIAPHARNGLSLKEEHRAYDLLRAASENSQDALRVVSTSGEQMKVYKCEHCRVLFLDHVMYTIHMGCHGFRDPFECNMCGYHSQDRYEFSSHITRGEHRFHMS
# assay text: Helios Cellular Degradation Assay (Ikaros readout)
# Assay type: cell-based
# Set-up: endogenous in cells; host or cells: Jurkat
# measurement conditions: Jurkat cells, 72 h incubation, Ikaros-Alexa488 antibody staining, flow cytometry; read-out: Ikaros Jurkat IC50
In this section, each of the molecules is paired with its reported DC50.

Answered examples (3):
>  <molecule>
O=C1CCC(N2Cc3cc(-c4ncnc5ccccc45)ccc3C2=O)C(=O)N1 (stereo not shown)

>  <result>
≥ 20 µM

$$$$
>  <molecule>
Nc1nc(-c2ccc3c(c2)CN(C2CCC(=O)NC2=O)C3=O)nc2nc[nH]c12 (stereo not shown)

>  <result>
> 20 µM

$$$$
>  <molecule>
Cc1cc(-c2ccc3c(c2)CN(C2CCC(=O)NC2=O)C3=O)nc(N)c1C (stereo not shown)

>  <result>
≥ 10 µM

$$$$

Query molecule follows.
Read the entry `Nc1nc(-c2ccc3c(c2)CN([C@H]2CCC(=O)NC2=O)C3=O)cc2ccccc12` and write its reported DC50.
≥ 20 µM

====

# assayed target: Helios (Homo sapiens, UniProt Q96SW2+Q9UKS7)
# Sequence (Q9UKS7 whole entry): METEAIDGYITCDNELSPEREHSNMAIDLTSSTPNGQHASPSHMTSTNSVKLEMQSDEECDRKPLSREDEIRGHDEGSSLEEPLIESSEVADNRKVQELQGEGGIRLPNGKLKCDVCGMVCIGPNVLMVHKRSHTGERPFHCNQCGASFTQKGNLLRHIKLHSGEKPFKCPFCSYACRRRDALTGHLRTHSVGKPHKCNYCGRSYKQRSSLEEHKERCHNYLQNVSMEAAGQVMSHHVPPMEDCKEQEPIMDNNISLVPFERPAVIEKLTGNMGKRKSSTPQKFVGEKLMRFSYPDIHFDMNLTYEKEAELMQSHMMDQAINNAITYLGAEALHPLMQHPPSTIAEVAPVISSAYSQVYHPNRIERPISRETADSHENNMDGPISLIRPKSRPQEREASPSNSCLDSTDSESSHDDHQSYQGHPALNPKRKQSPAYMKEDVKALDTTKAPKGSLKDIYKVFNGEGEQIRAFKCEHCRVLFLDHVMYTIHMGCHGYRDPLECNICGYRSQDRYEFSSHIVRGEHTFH
# Sequence (Q96SW2 whole entry): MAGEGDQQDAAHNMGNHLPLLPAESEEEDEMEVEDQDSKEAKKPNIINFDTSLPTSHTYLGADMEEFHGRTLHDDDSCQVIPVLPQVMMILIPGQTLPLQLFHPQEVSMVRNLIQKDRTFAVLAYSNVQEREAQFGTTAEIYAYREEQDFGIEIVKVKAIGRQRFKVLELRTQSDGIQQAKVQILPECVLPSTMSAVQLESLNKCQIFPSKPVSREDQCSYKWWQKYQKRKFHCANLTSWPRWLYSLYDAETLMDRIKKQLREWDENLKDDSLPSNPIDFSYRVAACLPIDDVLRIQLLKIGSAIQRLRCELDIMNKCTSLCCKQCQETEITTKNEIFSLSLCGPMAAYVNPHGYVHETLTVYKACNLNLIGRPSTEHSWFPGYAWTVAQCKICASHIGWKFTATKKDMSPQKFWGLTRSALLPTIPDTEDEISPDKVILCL
# Sequence (Q16531 whole entry partner): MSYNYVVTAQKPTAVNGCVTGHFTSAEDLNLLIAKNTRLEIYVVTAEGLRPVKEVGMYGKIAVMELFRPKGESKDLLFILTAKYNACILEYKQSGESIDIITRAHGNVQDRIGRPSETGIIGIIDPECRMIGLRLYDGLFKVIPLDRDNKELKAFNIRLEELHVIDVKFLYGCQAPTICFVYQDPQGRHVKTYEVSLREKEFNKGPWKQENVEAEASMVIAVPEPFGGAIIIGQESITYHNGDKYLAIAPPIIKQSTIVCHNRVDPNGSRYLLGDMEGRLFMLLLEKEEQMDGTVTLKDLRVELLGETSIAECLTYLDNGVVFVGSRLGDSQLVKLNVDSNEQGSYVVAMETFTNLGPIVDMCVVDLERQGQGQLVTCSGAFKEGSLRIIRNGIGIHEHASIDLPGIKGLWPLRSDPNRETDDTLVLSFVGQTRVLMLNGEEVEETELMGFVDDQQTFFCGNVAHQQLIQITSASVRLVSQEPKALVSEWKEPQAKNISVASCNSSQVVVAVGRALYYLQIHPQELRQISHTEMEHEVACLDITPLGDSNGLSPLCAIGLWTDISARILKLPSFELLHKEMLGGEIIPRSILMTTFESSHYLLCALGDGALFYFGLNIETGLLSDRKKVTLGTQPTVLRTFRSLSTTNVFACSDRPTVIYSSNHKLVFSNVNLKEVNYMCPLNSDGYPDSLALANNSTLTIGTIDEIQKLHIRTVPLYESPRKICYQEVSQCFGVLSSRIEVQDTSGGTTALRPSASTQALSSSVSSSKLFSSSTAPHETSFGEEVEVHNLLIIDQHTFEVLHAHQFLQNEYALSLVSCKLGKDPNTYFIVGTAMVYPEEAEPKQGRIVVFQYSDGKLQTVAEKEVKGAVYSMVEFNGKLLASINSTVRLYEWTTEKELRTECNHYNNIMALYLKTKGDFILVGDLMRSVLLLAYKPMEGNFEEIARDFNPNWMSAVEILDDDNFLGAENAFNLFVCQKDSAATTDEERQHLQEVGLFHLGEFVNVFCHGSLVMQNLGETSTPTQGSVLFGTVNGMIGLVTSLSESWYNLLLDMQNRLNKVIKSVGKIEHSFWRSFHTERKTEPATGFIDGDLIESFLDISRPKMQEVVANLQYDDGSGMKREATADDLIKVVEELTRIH
# assay text: Helios Cellular Degradation Assay (Helios readout)
# Format: cell-based
# Parameters: endogenous in cells; host or cells: Jurkat
# measurement conditions: Jurkat cells, 72 h incubation, Helios-PE antibody staining, flow cytometry; read-out: Helios Jurkat IC50
property: DC50 (nM)

>  <compound>
O=C1CCC(N2Cc3cc(-c4nccc5c4ccn5Cc4ccccc4)ccc3C2=O)C(=O)N1 (centres unmarked)

>  <DC50 [nM]>
20

$$$$
>  <compound>
N#Cc1nc(-c2ccc3c(c2)CN([C@H]2CCC(=O)NC2=O)C3=O)cc2ccccc12

>  <DC50 [nM]>
40

$$$$
>  <compound>
Cc1cc(C#N)c(-c2ccc3c(c2)CN(C2CCC(=O)NC2=O)C3=O)nc1N (centres unmarked)

>  <DC50 [nM]>
20

$$$$

P: O=C1CCC(N2Cc3cc(-c4ccc5cc(F)ccc5n4)ccc3C2=O)C(=O)N1 (centres unmarked)
Q: O=C1CCC(N2Cc3cc(-c4ccc5ccccc5n4)ccc3C2=O)C(=O)N1 (centres unmarked)
R: CC(=O)O[C@H]1CCOc2nc(-c3ccc4c(c3)CN([C@H]3CCC(=O)NC3=O)C4=O)ccc21
S: O=C1CCC(N2Cc3cc(-c4cc5cc[nH]c5nn4)ccc3C2=O)C(=O)N1 (centres unmarked)
Please give the order of these compounds when sorted by DC50, largest value leading. Give the order by naming the labels one after another as requested.
R, S, Q, P

====

# assayed target: Ikaros (Homo sapiens, UniProt Q13422+Q96SW2)
# assay text: Helios Cellular Degradation Assay (Ikaros readout)
# Format: cell-based
# Set-up: endogenous in cells; host or cells: Jurkat
# measurement conditions: Jurkat cells, 72 h incubation, Ikaros-Alexa488 antibody staining, flow cytometry; read-out: Ikaros Jurkat IC50
property: DC50 (nM)

I: Nc1nc(-c2ccccc2)nc(-c2ccc3c(c2)CN(C2CCC(=O)NC2=O)C3=O)n1 (stereo not shown)
II: COc1ccc2c(-c3ccc4c(c3)CN(C3CCC(=O)NC3=O)C4=O)nc(OC)cc2c1 (stereo not shown)
Compare I and II and name the one whose reported DC50 is smaller. Provide the label of your selected option as the answer.
II

====

# assayed target: Helios (Homo sapiens, UniProt Q96SW2+Q9UKS7)
# assay text: Helios Cellular Degradation Assay (Helios readout)
# Assay type: cell-based
# Parameters: endogenous in cells; host or cells: Jurkat
# measurement conditions: Jurkat cells, 72 h incubation, Helios-PE antibody staining, flow cytometry; read-out: Helios Jurkat IC50
property: DC50 (nM)

A selection of reference data follows.
>  <compound>
Nc1nc(-c2ccc3c(c2)CN(C2CCC(=O)NC2=O)C3=O)cc2ncccc12 (centres unmarked)

>  <assayed target>
Helios (Homo sapiens, UniProt Q96SW2+Q9UKS7)

>  <property>
DC50

>  <units symbol>
nM

>  <numeric result>
7

$$$$
>  <compound>
O=C1CCC(N2Cc3cc(-c4cc5c(ccn5Cc5ccccc5)cn4)ccc3C2=O)C(=O)N1 (centres unmarked)

>  <assayed target>
Helios (Homo sapiens, UniProt Q96SW2+Q9UKS7)

>  <property>
DC50

>  <units symbol>
nM

>  <numeric result>
20

$$$$
>  <compound>
O=C1CCC(N2Cc3cc(-c4ncc5ccccc5n4)ccc3C2=O)C(=O)N1 (centres unmarked)

>  <assayed target>
Helios (Homo sapiens, UniProt Q96SW2+Q9UKS7)

>  <property>
DC50

>  <units symbol>
nM

>  <numeric result>
27

$$$$
>  <compound>
N#Cc1c(C(F)F)cc(N)nc1-c1ccc2c(c1)CN(C1CCC(=O)NC1=O)C2=O (centres unmarked)

>  <assayed target>
Helios (Homo sapiens, UniProt Q96SW2+Q9UKS7)

>  <property>
DC50

>  <units symbol>
nM

>  <numeric result>
350

$$$$
>  <compound>
C[Si](C)(C)CCn1nnc2c(-c3ccc4c(c3)CN(C3CCC(=O)NC3=O)C4=O)nc(N)nc21 (centres unmarked)

>  <assayed target>
Helios (Homo sapiens, UniProt Q96SW2+Q9UKS7)

>  <property>
DC50

>  <units symbol>
nM

>  <numeric result>
110

$$$$

1: CC(C)c1cc(-c2ccc3c(c2)CN(C2CCC(=O)NC2=O)C3=O)nc(N)c1C#N (centres unmarked)
2: Cc1cc(-c2ccc3c(c2)CN(C2CCC(=O)NC2=O)C3=O)nc(N)c1C#N (centres unmarked)
3: COc1cccc2ccc(-c3ccc4c(c3)CN(C3CCC(=O)NC3=O)C4=O)nc12 (centres unmarked)
4: O=C1CCC(N2Cc3cc(-c4cc(CO)ccn4)ccc3C2=O)C(=O)N1 (centres unmarked)
rank_up(items): orders items by reported DC50 in ascending numerical order. A ranking is expressed here by listing the labels in the requested order.
2, 1, 3, 4
(2: 10 nM, 1: 70 nM, 3: 120 nM, 4: 830 nM)

====

# assayed target: Ikaros (Homo sapiens, UniProt Q13422+Q96SW2)
# assay text: Helios Cellular Degradation Assay (Ikaros readout)
# Format: cell-based
# Design: endogenous in cells; host or cells: Jurkat
# measurement conditions: Jurkat cells, 72 h incubation, Ikaros-Alexa488 antibody staining, flow cytometry; read-out: Ikaros Jurkat IC50
property: DC50

>  <molecule>
N#Cc1cc(C2CC2)c(-c2ccc3c(c2)CN(C2CCC(=O)NC2=O)C3=O)nc1N (stereo not shown) [Example 183]

>  <DC50>
≥ 10 µM

$$$$
>  <molecule>
Cc1cc(-c2ccc3c(c2)CN(C2CCC(=O)NC2=O)C3=O)nc(N)c1C#N (stereo not shown) [Example 148]

>  <DC50>
≥ 10 µM

$$$$
>  <molecule>
Cc1cc(N)nc(-c2ccc3c(c2)CN(C2CCC(=O)NC2=O)C3=O)c1 (stereo not shown) [Example 140]

>  <DC50>
≥ 20 µM

$$$$

Continue with the molecule presented below.
Fill in DC50 for record Nc1ccc(Br)c(-c2ccc3c(c2)CN(C2CCC(=O)NC2=O)C3=O)n1 (stereo not shown) [Example 101]
≥ 20 µM

====

# assayed target: Ikaros (Homo sapiens, UniProt Q13422+Q96SW2)
# assay text: Helios Cellular Degradation Assay (Ikaros readout)
# Format: cell-based
# Set-up: endogenous in cells; host or cells: Jurkat
# measurement conditions: Jurkat cells, 72 h incubation, Ikaros-Alexa488 antibody staining, flow cytometry; read-out: Ikaros Jurkat IC50
Form field: DC50 (one value per entry).

Examples with answers:
>  <compound>
O=C1CCC(N2Cc3cc(-c4nccc5c(F)cccc45)ccc3C2=O)C(=O)N1 (centres unmarked)

>  <DC50>
0.034 µM

$$$$
>  <compound>
CN(C)c1nc(-c2ccc3c(c2)CN(C2CCC(=O)NC2=O)C3=O)cc2ccccc12 (centres unmarked)

>  <DC50>
> 20 µM

$$$$
>  <compound>
O=C1CCC(N2Cc3cc(-c4ccc5c(n4)NC(=O)C5)ccc3C2=O)C(=O)N1 (centres unmarked)

>  <DC50>
≥ 10 µM

$$$$
>  <compound>
COc1cc(C#N)c(N)nc1-c1ccc2c(c1)CN(C1CCC(=O)NC1=O)C2=O (centres unmarked)

>  <DC50>
≥ 10 µM

$$$$
>  <compound>
O=C1CCC(N2Cc3cc(-c4cc5[nH]ccc5cn4)ccc3C2=O)C(=O)N1 (centres unmarked)

>  <DC50>
0.32 µM

$$$$
>  <compound>
O=C1CCC(N2Cc3cc(-c4ccccn4)ccc3C2=O)C(=O)N1 (centres unmarked)

>  <DC50>
≥ 10 µM

$$$$

Recall the reported DC50 of Nc1cc(CO)cc(-c2ccc3c(c2)CN(C2CCC(=O)NC2=O)C3=O)n1 (centres unmarked) on Ikaros (Homo sapiens, UniProt Q13422+Q96SW2) and write it down.
≥ 10 µM

Please look at Cc1cc2ccccc2nc1-c1ccc2c(c1)CN(C1CCC(=O)NC1=O)C2=O (centres unmarked) and tell me its recorded DC50 on Ikaros (Homo sapiens, UniProt Q13422+Q96SW2).
> 20 µM

Write DC50 of O=C1CCC(N2Cc3cc(-c4nccc5cccnc45)ccc3C2=O)C(=O)N1 (centres unmarked) ; system used: Ikaros (Homo sapiens, UniProt Q13422+Q96SW2)
> 20 µM

Output reported DC50 of the compound `Nc1nc(-c2ccc3c(c2)CN([C@@H]2CCC(=O)NC2=O)C3=O)cc2ccccc12` on Ikaros (Homo sapiens, UniProt Q13422+Q96SW2).
≥ 20 µM

Give DC50 for O=C1CCC(N2Cc3cc(-c4ncnc5c4oc4ccccc45)ccc3C2=O)C(=O)N1 (centres unmarked) tested on Ikaros (Homo sapiens, UniProt Q13422+Q96SW2).
> 20 µM

Please report the measured DC50 for N#Cc1cnc(-c2ccc3c(c2)CN(C2CCC(=O)NC2=O)C3=O)nc1N (centres unmarked) tested on Ikaros (Homo sapiens, UniProt Q13422+Q96SW2).
> 20 µM

Report the value of DC50 obtained on Ikaros (Homo sapiens, UniProt Q13422+Q96SW2) for C[Si](C)(C)CCn1nnc2c(-c3ccc4c(c3)CN(C3CCC(=O)NC3=O)C4=O)nc(N)nc21 (centres unmarked) .
3.6 µM

Enter measured DC50, system Ikaros (Homo sapiens, UniProt Q13422+Q96SW2), for the compound shown: O=Cc1cc2c(-c3ccc4c(c3)CN(C3CCC(=O)NC3=O)C4=O)nccc2s1 (centres unmarked)
0.16 µM

Please report the measured DC50 for Nc1cc(C(F)(F)F)cc(-c2ccc3c(c2)CN(C2CCC(=O)NC2=O)C3=O)n1 (centres unmarked) [Example 163] tested on Ikaros (Homo sapiens, UniProt Q13422+Q96SW2).
≥ 20 µM

State recorded DC50 with Ikaros (Homo sapiens, UniProt Q13422+Q96SW2), entry O=C1CCC(N2Cc3cc(-c4nccc5ccccc45)ccc3C2=O)C(=O)N1 (centres unmarked) , no comment.
0.025 µM

Answer with DC50 of N#Cc1cc(C2CC2)c(N)nc1-c1ccc2c(c1)CN(C1CCC(=O)NC1=O)C2=O (centres unmarked) measured for Ikaros (Homo sapiens, UniProt Q13422+Q96SW2).
≥ 10 µM
